Provenance of the data: patent US8008547B2

- PROCEDURE_DETAILS: Standard protocol for determination of kcat and KM (continuous spectrophotometric assay, Acetyl CoA hydrolysis at 235 nm)
- Assay type: biochemical
- CONDITION_CONTEXT: purified protein; about 23° C.; pH 6.8; 0.2 mM acetyl CoA; glyphosate 0.125 to 10 mM
Here the recorded Km is given for each entry.

Worked set:
SEQ ID NO: 512: GAT polypeptide (protein, GAT2_15G8, GAT polypeptide) MIEVKPINAEDTYEIRHRILRPNQPLEACKYETDLLGGTFHLGGYYRGKLISIASFHNAEHSELEGQKQYQLRGMATLEGYREQKAGSTLIRHAEELLRKKGADLLWCNARTSVSGYYKKLGFSEQGEVYDIPPIGPHILMYKKLT ... 2800 µM
SEQ ID NO: 451: GAT polypeptide (protein, 0_6H9, GAT polypeptide) MIEVKPINAEDTYELRHKILRPNQPIEACMYETDLLRGAFHLGGFYGGKLISIASFHQAEHSDLEGQKQYQLRGMATLEGYREQKAGSTLIRHAEEILRKKGANLLWCNARTSASGYYKKLGFSEQGEVFDTPPVGPHILMYKRLT ... 470 µM

From here, focus on the item given below.
Recall and state the measured Km for SEQ ID NO: 303: GAT polypeptide (protein, 13_7C1, GAT polypeptide) MIEVKPINAEDTYEIRHRILRPNQPLEACKYETDLLRGAFHLGGYYRGKLISIASFHQAEHPELEGQKQYQLRGMATLEGYREQKAGSTLIRHAEELLRKKGADLLWCNARTSARGYYKKLGFSEQGEVYDIPPTGPHILMYKKLT .
1500 µM
